- ASSAY_NAME: Determination of the logP values by HPLC on reversed-phase column (C 18)
- Format: physicochemical
- MEASUREMENT_PARAMETERS: 0.1% aqueous phosphoric acid/acetonitrile; HPLC, reversed-phase C 18, 40 °C; [a] 0.1% aqueous phosphoric acid and acetonitrile at pH 2.3; linear gradient from 10 to 95 % (v/v) acetonitrile
PROPERTY_MEASURED: chromatographic logP
Respond numerically, and do not add a unit to the figure.

Study these solved cases before continuing.
What value of chromatographic logP has been reported for the following molecule? CCSC[C@H](C)NC(=O)c1c(I)cccc1C(=O)Nc1ccc(C(C(F)F)C(F)(F)F)cc1F (stereo partly shown) 3.57

What value of chromatographic logP has been reported for the following molecule? CCSC[C@H](C)NC(=O)c1c(I)cccc1C(=O)Nc1ccc(C(F)(C(F)F)C(F)(F)F)cc1C (stereo partly shown) 3.96

What value of chromatographic logP has been reported for the following molecule? Cc1c(NC(=O)c2cccc(I)c2C(=O)N[C@@H](C)C[S+](C)[O-])ccc(C(F)(C(F)(F)F)C(F)(F)F)c1F (stereo partly shown) 2.78

Now look at this entry.
What value of chromatographic logP has been reported for the following molecule? CCS(=O)(=O)C[C@H](C)NC(=O)c1c(I)cccc1C(=O)Nc1ccc(C(C(F)F)C(F)(F)F)cc1F (stereo partly shown) 2.65

###

- ASSAY_NAME: Determination of the logP values by HPLC on reversed-phase column (C 18)
- Type: physicochemical
- MEASUREMENT_PARAMETERS: 0.1% aqueous phosphoric acid/acetonitrile; method [a]: 0.1% aqueous phosphoric acid and acetonitrile at pH 2.3; linear gradient from 10 to 95 % (v/v) acetonitrile; HPLC reversed-phase C 18, 40 °C
- Procedure: Determination of the logP values: The lambda max values were determined in the maxima of the chromatographic signals using the UV spectra from 190 nm to 400 nm.
In this section we review reported chromatographic logP values for a set of compounds.
Respond numerically, and do not add a unit to the figure.

What value of chromatographic logP has been reported for the following compound? CSC[C@H](C)NC(=O)c1c(I)cccc1C(=O)Nc1ccc(C(F)(F)C(F)(F)F)c(F)c1C 4.04

What value of chromatographic logP has been reported for the following compound? Cc1c(NC(=O)c2cccc(Br)c2C(=O)N[C@@H](C)CS(C)(=O)=O)ccc(C(F)(F)C(F)(F)F)c1F 2.86

What value of chromatographic logP has been reported for the following compound? Cc1cc(C(F)(C(F)F)C(F)(F)F)ccc1NC(=O)c1cccc(Cl)c1C(=O)N[C@@H](C)CS(C)(=O)=O (stereo partly shown) 2.61

Now look at this entry.
What value of chromatographic logP has been reported for the following compound? CCS(=O)(=O)C[C@H](C)NC(=O)c1c(Br)cccc1C(=O)Nc1ccc(C(F)(F)C(F)(F)F)c(Cl)c1C 3.19

###

In this section we review reported chromatographic logP values for a set of compounds.
- ASSAY_NAME: Determination of the logP values by HPLC on reversed-phase column (C 18)
- Assay type: physicochemical
- MEASUREMENT_PARAMETERS: 0.1% aqueous phosphoric acid/acetonitrile; method [a]: 0.1% aqueous phosphoric acid and acetonitrile at pH 2.3; linear gradient from 10 to 95 % (v/v) acetonitrile; HPLC reversed-phase C 18, 40 °C
Respond numerically, and do not add a unit to the figure.

What value of chromatographic logP has been reported for the following compound? Cc1cc(C(C(F)(F)F)C(F)(F)F)c(F)cc1NC(=O)c1cccc(Br)c1C(=O)N[C@@H](C)C[S+](C)[O-] (stereo partly shown) 2.58

Next:
What value of chromatographic logP has been reported for the following compound? CSC[C@H](C)NC(=O)c1c(I)cccc1C(=O)Nc1ccc(C(F)(C(F)(F)F)C(F)(F)F)c(F)c1C 4.41

What value of chromatographic logP has been reported for the following compound? CSC[C@H](C)NC(=O)c1c(Br)cccc1C(=O)Nc1ccc(C(F)(C(F)(F)F)C(F)(F)F)c(F)c1C 4.31

What value of chromatographic logP has been reported for the following compound? CCSC[C@H](C)NC(=O)c1c(I)cccc1C(=O)Nc1ccc(C(F)(C(F)(F)F)C(F)(F)F)c(F)c1C 4.71
